Origin of the recorded values: paper PMC4926326

Tested on: Bel-7402 hepatoma cell line
assay: MTT antiproliferative assay
Format: cell-based, human
conditions: Homo sapiens, Bel-7402; MTT, 72 h, mean ± SD of three experiments; read-out: IC50 Bel-7402
property name: pIC50
One number for each entry, as −log10 of the molar value.

Examples from the recorded data:
compound	pIC50
C=C1C(=O)[C@@]23C(=O)O[C@H]4CCC(C)(C)[C@H]5[C@H](O)OC[C@@]45[C@@H]2CC[C@@H]1[C@H]3OC(=O)CCC(=O)OCCCOc1no[n+]([O-])c1S(=O)(=O)c1ccccc1	5.91
C=C1C(=O)[C@]23[C@H](O)[C@H]1CC[C@H]2[C@@]12CO[C@]3(O)[C@@H](O)[C@@H]1C(C)(C)CC[C@@H]2O [Compound 7, oridonin, reference compound]	5.13
C=C1C(=O)[C@@]23C(=O)O[C@H]4CCC(C)(C)[C@H]5[C@H](O)OC[C@@]45[C@@H]2CC[C@@H]1[C@H]3OC(=O)c1ccccc1C(=O)OCCCCOc1no[n+]([O-])c1S(=O)(=O)c1ccccc1	6.11
C=C1C(=O)[C@@]23C(=O)O[C@H]4CCC(C)(C)[C@H]5[C@H](O)OC[C@@]45[C@@H]2CC[C@@H]1[C@H]3OC(=O)CCC(=O)OCCCCOc1no[n+]([O-])c1S(=O)(=O)c1ccccc1	5.90

Next compound, please.
Need pIC50, item C=C1C(=O)[C@@]23C(=O)O[C@H]4CCC(C)(C)[C@H]5[C@H](O)OC[C@@]45[C@@H]2CC[C@@H]1[C@H]3OC(=O)CCCC(=O)OCCOc1no[n+]([O-])c1S(=O)(=O)c1ccccc1
5.92
